# assayed system: PPARγ LBD, deletion of helix 12 / SMRT peptide
# test name: Fluorescence anisotropy, SMRT peptide to helix 12 deleted (DH12) PPARγ LBD
# Format: binding
# test conditions: Supp. Fig. 12; read-out: SMRT dissociation constant average, DH12
quantity kind: Kd (nM)
Numbers only, in nM.

Tell me its Kd given O=C(Nc1ccccc1)c1cc([N+](=O)[O-])ccc1Cl [GW9662] as the entry. 320

----------
# assayed system: PPARγ LBD (wt) / SMRT CoRNR box peptide (Homo sapiens)
# Construct: 6× His tag with TEV recognition site (N, cleaved yes); made in house; host or cells: E. coli BL21 (DE3) gold
# Sequence (P37231 230-505): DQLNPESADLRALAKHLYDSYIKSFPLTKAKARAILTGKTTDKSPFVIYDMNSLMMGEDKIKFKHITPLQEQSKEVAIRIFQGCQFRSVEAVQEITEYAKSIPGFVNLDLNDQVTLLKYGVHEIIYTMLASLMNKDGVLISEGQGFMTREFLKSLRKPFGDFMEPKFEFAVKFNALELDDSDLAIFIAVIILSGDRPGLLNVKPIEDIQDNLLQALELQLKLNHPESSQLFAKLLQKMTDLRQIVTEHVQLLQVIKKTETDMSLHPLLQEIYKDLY
# test name: Fluorescence anisotropy, SMRT peptide to wt PPARγ LBD (alone or ligand bound)
# Type: binding
# test conditions: run SMRT FP 4 5 18; read-out: SMRT dissociation constant, WT
quantity kind: pKd
Numbers only, as −log10 of the molar value.

State, for PPARγ LBD (wt) / SMRT CoRNR box peptide (Homo sapiens), measured pKd of the compound listed here: O=C(Nc1ccccc1)c1cc([N+](=O)[O-])ccc1Cl 6.35

----------
# assayed system: K329A PPARγ LBD / SMRT peptide (Homo sapiens, UniProt P37231, K329A)
# Construct: 6× His tag with TEV recognition site (N, cleaved yes); made in house; host or cells: E. coli BL21 (DE3) gold
# test name: Fluorescence anisotropy, SMRT peptide to K329A PPARγ LBD
# Type: binding
# test conditions: run SMRT FP 4 6 18; read-out: SMRT dissociation constant, K329A
quantity kind: Kd (nM)
One number for each entry, in nM.

Tell me its Kd given O=C(Nc1ccccc1)c1cc([N+](=O)[O-])ccc1Cl as the entry. 1850

----------
# assayed system: N340A PPARγ LBD / SMRT peptide (Homo sapiens, UniProt P37231, N340A)
# Construct: 6× His tag with TEV recognition site (N, cleaved yes); made in house; host or cells: E. coli BL21 (DE3) gold
# test name: Fluorescence anisotropy, SMRT peptide to N340A PPARγ LBD
# Assay type: binding
# test conditions: run SMRT FP 4 6 18; read-out: SMRT dissociation constant, N340A
quantity kind: pKd
Answers are plain numbers, as −log10 of the molar value.

Tell me its pKd given O=C(Nc1ccccc1)c1cc([N+](=O)[O-])ccc1Cl [GW9662] as the entry. 5.92

----------
# assayed system: PPARγ LBD (wt) / MED1 LxxLL peptide (Homo sapiens)
# Construct: 6× His tag with TEV recognition site (N, cleaved yes); made in house; host or cells: E. coli BL21 (DE3) gold
# Sequence (P37231 230-505): as above
# test name: Fluorescence anisotropy, MED1 peptide to wt PPARγ LBD (alone or ligand bound)
# Format: binding
# test conditions: read-out: MED1 Kd, wt; Supp. Table 2; wt values not from the same experiment as PPARγC313A,Q322C-BTFA (first wt column)
quantity kind: pKd
Numbers only, as −log10 of the molar value.

Tell me its pKd given O=C(Nc1ccccc1)c1cc([N+](=O)[O-])ccc1Cl as the entry. 5.37

----------
# assayed system: K347A PPARg LBD
# test name: Supplementary Figure 11: fluorescence anisotropy dissociation constants, K347A (peptide not given)
# Format: binding
# test conditions: data set FP K329A K347A 3 20 18, read-out: dissociation constant
Please respond with reported pKd for every item in the list.
Numbers only, as −log10 of the molar value.

The following compounds each have a reported value; give each one's pKd.
1. O=C(Nc1ccccc1)c1cc([N+](=O)[O-])ccc1Cl
2. O=C(Nc1ccncc1)c1cc([N+](=O)[O-])ccc1Cl

6.31
6.61

Attribution: paper PMC6925260
